For each entry below, report its pEC50 value.
# experimental.protocol: Inhibition of NS5A in HCV genotype 1b Con1 infected in human HuH7 replicon cells assessed as reduction in viral replication after 3 days by luciferase reporter gene assay
Answers are plain numbers, as −log10 of the molar value.

Take a look at these entries with their results.
{"smiles.string": "COC(=O)N[C@@H](C(=O)N1[C@@H](C)CC[C@H]1c1ncc(-c2cc3c4c(c2)OCc2cc(-c5cnc([C@@H]6CC[C@H](C)N6C(=O)[C@H](NC(=O)OC)c6ccccc6)[nH]5)cc(c2-4)OC3)[nH]1)c1ccccc1", "pEC50": 10.70}
{"smiles.string": "COC(=O)N[C@H](C(=O)N1CCC[C@H]1c1ncc(-c2cc3c4c(c2)CCc2cc(-c5cnc([C@@H]6CCCN6C(=O)[C@@H](NC(=O)OC)C(C)C)[nH]5)cc(c2-4)CC3)[nH]1)C(C)C", "pEC50": 10.68}
{"smiles.string": "COC(=O)N[C@@H](C(=O)N1CCC[C@H]1c1ncc(-c2cc3c4c(c2)OCc2cc(-c5cnc([C@@H]6CCCN6C(=O)[C@H](NC(=O)OC)c6ccccc6)[nH]5)cc(c2-4)OC3)[nH]1)c1ccccc1", "pEC50": 10.32}
{"smiles.string": "COC[C@H]1C[C@@H](c2ncc(-c3ccc4c(c3)COc3cc5c(ccc6nc([C@@H]7C[C@@H]8C[C@H]8N7C(=O)[C@@H](NC(=O)OC)C(C)C)[nH]c65)cc3-4)[nH]2)N(C(=O)[C@H](NC(=O)OC)c2ccccc2)C1", "pEC50": 10.70}
{"smiles.string": "COC[C@H]1C[C@@H](c2ncc(-c3ccc4c(c3)COc3cc5c(ccc6nc([C@@H]7C[C@H](C)CN7C(=O)[C@@H](NC(=O)OC)C(C)C)[nH]c65)cc3-4)[nH]2)N(C(=O)[C@H](NC(=O)OC)c2ccccc2)C1", "pEC50": 10.77}

For every item below, please supply its pEC50.
1. COC(=O)N[C@H](C(=O)N1CCC[C@H]1c1ncc(-c2ccc3c(c2)COc2cc4c(ccc5nc([C@@H]6CCCN6C(=O)[C@H](NC(=O)OC)c6ccccc6)[nH]c54)cc2-3)[nH]1)C(C)C
2. COC[C@H]1C[C@@H](c2ncc(-c3ccc4c(c3)COc3cc5c(ccc6nc([C@@H]7C[C@H](COC)CN7C(=O)[C@@H](NC(=O)OC)C(C)C)[nH]c65)cc3-4)[nH]2)N(C(=O)[C@@H](NC(=O)OC)C(C)C)C1
3. COC(=O)N[C@H](C(=O)N1[C@@H](C)CC[C@H]1c1ncc(-c2ccc3c(c2)COc2cc4c(ccc5nc([C@@H]6CC[C@H](C)N6C(=O)[C@@H](NC(=O)OC)C(C)C)[nH]c54)cc2-3)[nH]1)C(C)C
4. CCO[C@H]1C[C@@H](c2nc3ccc4cc5c(cc4c3[nH]2)OCc2cc(-c3cnc([C@@H]4CCCN4C(=O)[C@@H](NC(=O)OC)C(C)C)[nH]3)ccc2-5)N(C(=O)[C@@H](NC(=O)OC)C(C)C)C1

[10.68, 10.47, 10.92, 10.74]

* * *

For each entry below, report its EC50 value.
# experimental.protocol: Inhibition of NS5A in HCV genotype 4a ED43 infected in human HuH7 transient chimeric replicon cells assessed as reduction in viral replication after 3 days by luciferase reporter gene assay
One number for each entry, in nM.

Take a look at these entries with their results.
{"smiles.string": "COC(=O)N[C@H](C(=O)N1CCC[C@H]1c1ncc(-c2ccc3c(c2)COc2cc4c(ccc5nc([C@@H]6C[C@H](C)CN6C(=O)[C@@H](NC(=O)OC)C(C)C)[nH]c54)cc2-3)[nH]1)C(C)C", "unit.spec": "nM", "EC50": 0.011}
{"smiles.string": "COC(=O)N[C@H](C(=O)N1CCC[C@H]1c1ncc(-c2ccc3c(c2)COc2c-3ccc3c2ccc2nc([C@@H]4CCCN4C(=O)[C@@H](NC(=O)OC)C(C)C)[nH]c23)[nH]1)C(C)C", "unit.spec": "nM", "EC50": 0.13}
{"smiles.string": "COC(=O)N[C@@H](C(=O)N1[C@@H](C)CC[C@H]1c1ncc(-c2cc3c4c(c2)OCc2cc(-c5cnc([C@@H]6CC[C@H](C)N6C(=O)[C@H](NC(=O)OC)c6ccccc6)[nH]5)cc(c2-4)OC3)[nH]1)c1ccccc1", "unit.spec": "nM", "EC50": 0.015}
{"smiles.string": "COC(=O)N[C@H](C(=O)N1[C@@H](C)CC[C@H]1c1ncc(-c2ccc3c(c2)COc2cc4c(ccc5nc([C@@H]6CC[C@H](C)N6C(=O)[C@@H](NC(=O)OC)C(C)C)[nH]c54)cc2-3)[nH]1)C(C)C", "unit.spec": "nM", "EC50": 0.008}

Shift focus to the following entry.
What measured EC50 goes with COC[C@H]1C[C@@H](c2ncc(-c3ccc4c(c3)COc3cc5c(ccc6nc([C@@H]7C[C@H](COC)CN7C(=O)[C@@H](NC(=O)OC)C(C)C)[nH]c65)cc3-4)[nH]2)N(C(=O)[C@@H](NC(=O)OC)C(C)C)C1 ?
0.036

* * *

For each entry below, report its EC50 value.
# experimental.protocol: Inhibition of NS5A L31M mutant in patient derived HCV genotype 2b MD2b-1 infected in human HuH7 replicon cells assessed as reduction in viral replication after 3 days by luciferase reporter gene assay
Answers are plain numbers, in nM.

{"smiles.string": "CC[C@H](C)[C@H](NC(=O)OC)C(=O)N1CCC[C@H]1c1ncc(-c2cc3c4c(c2)OCc2cc(-c5cnc([C@@H]6CCCN6C(=O)[C@@H](NC(=O)OC)[C@@H](C)CC)[nH]5)cc(c2-4)OC3)[nH]1", "EC50 / nM": 1.85}
{"smiles.string": "COC(=O)N[C@@H](C(=O)N1C[C@@H](C)C[C@H]1c1ncc(-c2cc3c4c(c2)OCc2cc(-c5cnc([C@@H]6C[C@H](C)CN6C(=O)[C@H](NC(=O)OC)c6ccccc6)[nH]5)cc(c2-4)OC3)[nH]1)c1ccccc1", "EC50 / nM": 0.026}

What measured EC50 goes with COC(=O)N[C@H](C(=O)N1CCC[C@H]1c1ncc(-c2cc3c4c(c2)OCc2cc(-c5cnc([C@@H]6CCCN6C(=O)[C@@H](NC(=O)OC)C(C)C)[nH]5)cc(c2-4)OC3)[nH]1)C(C)C ?
1.77

* * *

# experimental.protocol: Inhibition of NS5A in HCV genotype 6a HK6 infected in human HuH7 replicon cells assessed as reduction in viral replication after 3 days by luciferase reporter gene assay
For each entry below, report its pEC50 value.
Numbers only, as −log10 of the molar value.

{"smiles.string": "COC[C@H]1C[C@@H](c2nc(-c3ccc4c(c3)COc3cc5c(ccc6nc([C@@H]7CC[C@H](C)N7C(=O)[C@@H](NC(=O)OC)C(C)C)[nH]c65)cc3-4)c[nH]2)N(C(=O)[C@H](NC(=O)OC)c2ccccc2)C1", "readout.kind": "pEC50", "val": 11.22}

For every item below, please supply its pEC50.
1. COC[C@H]1C[C@@H](c2ncc(-c3cc4c5c(c3)OCc3cc(-c6cnc([C@@H]7CC[C@H](C)N7C(=O)[C@@H](NC(=O)OC)C(C)C)[nH]6)cc(c3-5)OC4)[nH]2)N(C(=O)[C@H](NC(=O)OC)c2ccccc2)C1
2. COC(=O)N[C@H](C(=O)N1CC2(CC2)C[C@H]1c1nc(-c2ccc3c(c2)C(F)(F)c2cc(-c4ccc5[nH]c([C@@H]6[C@H]7CC[C@H](C7)N6C(=O)[C@@H](NC(=O)OC)C(C)C)nc5c4)ccc2-3)c[nH]1)C(C)C
3. COC(=O)N[C@H](C(=O)N1CCC[C@H]1c1ncc(-c2cc3c4c(c2)OCc2cc(-c5cnc([C@@H]6CCCN6C(=O)[C@@H](NC(=O)OC)C(C)C)[nH]5)cc(c2-4)OC3)[nH]1)C(C)C

[10.66, 8.96, 10.80]

* * *

# experimental.protocol: Inhibition of NS5A in HCV genotype 4a ED43 infected in human HuH7 replicon cells assessed as reduction in viral replication after 3 days by luciferase reporter gene assay
readout.kind: pEC50
Numbers only, as −log10 of the molar value.

{"smiles.string": "COC[C@H]1C[C@@H](c2ncc(-c3ccc4c(c3)COc3cc5c(ccc6nc([C@@H]7C[C@@H]8C[C@H]8N7C(=O)[C@@H](NC(=O)OC)C(C)C)[nH]c65)cc3-4)[nH]2)N(C(=O)[C@H](NC(=O)OC)c2ccccc2)C1", "readout.kind": "pEC50", "val": 11.05}

Shift focus to the following entry.
What measured pEC50 goes with COC[C@H]1C[C@@H](c2ncc(-c3cc4c5c(c3)OCc3cc(-c6cnc([C@@H]7CC[C@H](C)N7C(=O)[C@@H](NC(=O)OC)C(C)C)[nH]6)cc(c3-5)OC4)[nH]2)N(C(=O)[C@H](NC(=O)OC)c2ccccc2)C1 ?
10.89

Value source: BindingDB's records for doi:10.1016/j.bmcl.2019.04.027
